Cited source for all entries: patent US9399623B2

Biological target: P2X7 (Homo sapiens)
Sequence (Q99572 whole entry): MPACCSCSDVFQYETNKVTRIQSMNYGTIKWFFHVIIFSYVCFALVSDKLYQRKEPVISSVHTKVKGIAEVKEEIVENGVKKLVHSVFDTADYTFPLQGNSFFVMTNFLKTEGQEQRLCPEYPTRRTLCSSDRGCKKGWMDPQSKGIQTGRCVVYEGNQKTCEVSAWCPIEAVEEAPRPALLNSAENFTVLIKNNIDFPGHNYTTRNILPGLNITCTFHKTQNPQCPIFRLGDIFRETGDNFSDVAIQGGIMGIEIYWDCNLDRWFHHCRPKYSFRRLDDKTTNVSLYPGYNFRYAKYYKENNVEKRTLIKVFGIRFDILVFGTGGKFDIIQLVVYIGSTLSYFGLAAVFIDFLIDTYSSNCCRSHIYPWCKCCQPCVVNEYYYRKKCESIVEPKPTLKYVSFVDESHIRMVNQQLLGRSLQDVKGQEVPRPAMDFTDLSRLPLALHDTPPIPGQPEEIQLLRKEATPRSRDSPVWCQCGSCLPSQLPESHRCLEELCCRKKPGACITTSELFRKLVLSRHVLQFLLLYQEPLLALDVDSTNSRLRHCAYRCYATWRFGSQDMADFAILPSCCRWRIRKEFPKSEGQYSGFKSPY
Assay: Pore permeation assay (YO PRO dye uptake, BzATP-induced)
Format: cell-based
Set-up: expressed in transfected cells; host or cells: HEK293
Details: HEK293 transfected with human P2X7 receptor; YO PRO dye 1 uM, BzATP 10 uM; read-out: hP2X7 IC50
endpoint-label: IC50

Sample answers from the record:
O=C(NCC1(O)CCCCCC1)c1c(Cl)ccc2nc(N3CCCC3)ccc12 [Compound 25]	10 to 100 nM
COCCCNc1ccc2c(C(=O)NCC3CCC(F)(F)CC3)c(Cl)ccc2n1 [Compound 77]	101 to 500 nM
O=C(NCC1CCC(F)(F)CC1)c1c(Cl)ccc2nc(N3CC[C@@H](CCO)C3)ccc12 [Compound 26]	10 to 100 nM

With those in mind, consider the next molecule.
*Q* Using known records, supply IC50 for O=C(NCC1CCC(F)(F)CC1)c1c(Cl)ccc2nc(C3CCCCC3)ccc12 [Compound 48]
*A* 10 to 100 nM
